Values were extracted from patent US20080176813A1.

# Tested on: HEL
# PROCEDURE_DETAILS: Cytotoxicity, cell growth
# EXPERIMENTAL_CONTEXT: HEL (footnote b)
QUANTITY_MEASURED: Cytotoxic concentration required to reduce cell growth by 50%

>  <COMPOUND>
Nc1nc2c(ncn2[C@H]2C=C[C@@H](CO)[C@H](O)C2)c(=O)[nH]1 [L-cyclohexenyl G]

>  <RESULT>
>20 µg/mL

$$$$
>  <COMPOUND>
O=c1[nH]c(=O)n([C@H]2C[C@H](O)[C@@H](CO)O2)cc1/C=C/Br [Brivudin, reference compound]

>  <RESULT>
>50 µg/mL

$$$$
>  <COMPOUND>
Nc1nc(O)c2ncn(COC(CO)CO)c2n1 [Ganciclovir, reference compound]

>  <RESULT>
>50 µg/mL

$$$$
>  <COMPOUND>
Nc1ccn(C[C@@H](CO)OCP(=O)(O)O)c(=O)n1 [Cidolovir, reference compound]

>  <RESULT>
>50 µg/mL

$$$$
>  <COMPOUND>
Nc1nc2c(ncn2[C@@H]2C=C[C@H](CO)[C@@H](O)C2)c(=O)[nH]1 [D-cyclohexenyl G]

>  <RESULT>
>20 µg/mL

$$$$

====

# Tested on: HEL
# PROCEDURE_DETAILS: Cytotoxicity, HEL (footnote c not given)
# EXPERIMENTAL_CONTEXT: HEL (footnote c, not defined)
QUANTITY_MEASURED: Cytotoxicity (concentration)

>  <MOLECULE>
O=c1[nH]c(=O)n([C@H]2C[C@H](O)[C@@H](CO)O2)cc1/C=C/Br [Brivudin, reference compound]

>  <QUANTITY_MEASURED>
Cytotoxicity (concentration)

>  <RESULT>
>200 µg/mL

$$$$
>  <MOLECULE>
Nc1nc2c(ncn2[C@H]2C=C[C@@H](CO)[C@H](O)C2)c(=O)[nH]1

>  <QUANTITY_MEASURED>
Cytotoxicity (concentration)

>  <RESULT>
>20 µg/mL

$$$$
>  <MOLECULE>
Nc1ccn(C[C@@H](CO)OCP(=O)(O)O)c(=O)n1 [Cidolovir, reference compound]

>  <QUANTITY_MEASURED>
Cytotoxicity (concentration)

>  <RESULT>
>50 µg/mL

$$$$
>  <MOLECULE>
Nc1nc(O)c2ncn(COC(CO)CO)c2n1 [Ganciclovir, reference compound]

>  <QUANTITY_MEASURED>
Cytotoxicity (concentration)

>  <RESULT>
>50 µg/mL

$$$$
>  <MOLECULE>
Nc1nc2c(ncn2[C@@H]2C=C[C@H](CO)[C@@H](O)C2)c(=O)[nH]1

>  <QUANTITY_MEASURED>
Cytotoxicity (concentration)

>  <RESULT>
11 µg/mL

$$$$
